EXPERIMENTAL_TARGET: DN-IV quality control recombinant protein (produced by the company) (dengue virus)
MEASUREMENT_DESCRIPTION: BLI, antibody on AMC sensor
RESULT_TYPE: koff (s⁻¹)

INSERT INTO results (binder, observed) VALUES
  ('Mutation 1-13 (antibody, V domains shown) VH: EVQLQQPGPELVKPGASVKMSCKASGYTFTSSVIHWVRQKPGQGLEWIGYMNPYNDGLKYNEKFIGKAILTSDKSSSTAYMQLSSLTSEDSAVYYCTREGLFYVFDYWGQGTSVTVSS VL: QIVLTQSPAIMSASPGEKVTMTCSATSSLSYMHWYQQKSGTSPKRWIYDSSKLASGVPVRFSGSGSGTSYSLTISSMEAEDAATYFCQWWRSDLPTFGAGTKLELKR', 0.000151),
  ('Mutation 1-4 (antibody, V domains shown) VH: EVQLQQPGPELVKPGASVKMSCKASGYTFTSSVIHWVRQKPGQGLEWIGYMNPYNDGLKYNEKFIGKAILTSDKSSSTAYMQLSSLTSEDSAVYYCTKEGLFYVMDYWGQGTSVTVSS VL: QIVLTQSPAIMSASPGEKVTMTCSATSSLSYMHWYQQKSGTSPKRWIYDTSKLASGVPVRFSGSGSGTSYSLTISSMEAEDAATYFCQWWRSDLPTFGAGTKLELKR', 0.000234),
  ('Mutation 1-48 (antibody, V domains shown) VH: EVQLQQPGPELVKPGASVKMSCKASGYTFTSTVIHWVRQKPGQGLEWIGYMNPYNDGLKYNEKFIGKAILTSDKSSSTAYMQLSSLTSEDSAVYYCTKEGLFYVMDYWGQGTSVTVSS VL: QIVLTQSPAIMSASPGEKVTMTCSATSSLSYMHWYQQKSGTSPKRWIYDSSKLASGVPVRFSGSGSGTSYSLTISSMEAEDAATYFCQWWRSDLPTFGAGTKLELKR', 0.000248),
  ('Mutation 1-22 (antibody, V domains shown) VH: EVQLQQPGPELVKPGASVKMSCKASGYTFTSSVIHWVRQKPGQGLEWIGYMNPYNDGLKYNEKFIGKAILTSDKSSSTAYMQLSSLTSEDSAVYYCTREGLFYVFDYWGQGTSVTVSS VL: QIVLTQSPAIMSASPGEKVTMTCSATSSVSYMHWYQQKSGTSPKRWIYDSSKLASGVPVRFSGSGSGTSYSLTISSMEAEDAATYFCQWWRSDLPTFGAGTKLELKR', 0.000245);
